molecular target: T1, HLA-A*0201 class I monomer on avidin-coated plates (iTopia Epitope Discovery System) (human); test: iTopia off-rate assay (FIG. 20)
T1 construct: Bought kit (Beckman Coulter); also called A0201 restricted MHC Class 1 molecules; MHC monomer
Square brackets hold non-standard residues; d marks the D form. Ends that are not written are not given here. Nva = CCC[C@H](N)C(=O)O
Assay Readout: binding result

Binder	Reported
GVPSIPVHP[Nva] [PSMA288-297 analog with Val at P2 and Nva at PΩ]	binds
ALPSIPVHP[Nva] [PSMA288-297 analog with Ala at P1 and Nva at PΩ]	binds
XLPSIPVHPX (aminobutyric acid (Abu) at P1; norvaline (Nva) at PΩ (P10)) [PSMA288-297 analog with Abu at P1 and Nva at PΩ]	binds

// provenance: patent US20070060518A1
